Listing of entries alongside the reported Gal9 response compared to reference.
tested on: mCherry-GAL9 expressing U2OS cells; assay: GAL9 recruitment assay, U2OS; assay type: cell-based; conditions: EEE 10 µM, calculated mean from >3 independent exp.
Give the figure by itself; no unit, no explanation.

Here's what some known entries look like.
// query State the recorded Gal9 response compared to reference for this entry: CCOc1nn(C2CCN(C)CC2)cc1Nc1ncc(C(F)(F)F)c(-c2c[nH]c3ccccc23)n1 [EEE15]
// result 0.014

// query Another compound to look at: CCCN1CCC(n2cc(Nc3ncc(F)c(-n4ccc5c(C#N)cccc54)n3)c(OC)n2)CC1 [EEE10]
// result 0.512

// query Note, next up: COc1nn(C2CCN(C)CC2)cc1Nc1ncc(F)c(-n2ccc3c(C#N)cccc32)n1 [EEE8]
// result 0.563

Now, please, on to the next compound.
// query # input compound: COc1nn(C2CCNCC2)cc1Nc1ncc(F)c(-n2ccc3c(C#N)cccc32)n1 [EEE4] ; wanted: its Gal9 response compared to reference
// result 0.561
